- TESTED_TARGET: Human P2X7 (hP2X7) receptor (Homo sapiens)
- Construct: myc-His (from the pcDNA3.1/myc-HisA vector); expressed in transfected cells
- MEASUREMENT_NOTES: Dye assay: BzATP-induced Yo-Pro-1 uptake in HEK293 cells stably expressing hP2X7
- Assay type: cell-based
- MEASUREMENT_CONDITIONS: BzATP (0.1 mM)-induced Yo-Pro-1 uptake, compounds 30 min pre-treatment, 90 min incubation
pIC50: −log10 of the molar value.
ENDPOINT: pIC50

>>> numeric_result("CC(C)NC(=O)Cn1ncc(N[C@@H]2C[C@@H]3C[C@H]([C@H]2C)C3(C)C)c(Cl)c1=O")
7.70
>>> numeric_result("CC1C(Nc2cnn(CC(=O)NCc3ccnnc3)c(=O)c2Br)CC2CC1C2(C)C (centres unmarked)")
8.41

[P] CCC(NC(=O)Cn1ncc(NC2C[C@@H]3CC([C@H]2C)C3(C)C)c(OC(F)F)c1=O)c1ccncc1 (some centres unmarked) [Synthetic Example 382]
[Q] CC(NC(=O)Cn1ncc(NC23CC4CC(CC2C4)C3)c(Cl)c1=O)c1ccncc1Cl (centres unmarked)
Input line: Response body: label of entry with the larger pIC50; valid values P , Q . Selection: enter the item's label.
Output line: Q
(Q: 8.59, P: 7.60)

====

- TESTED_TARGET: Human P2X7 (hP2X7) receptor (Homo sapiens, UniProt Q99572)
- Construct: myc-His (from the pcDNA3.1/myc-HisA vector); expressed in transfected cells
- MEASUREMENT_NOTES: Dye assay: BzATP-induced Yo-Pro-1 uptake in HEK293 cells stably expressing hP2X7
- Type: cell-based
- MEASUREMENT_CONDITIONS: BzATP (0.1 mM)-induced Yo-Pro-1 uptake, compounds 30 min pre-treatment, 90 min incubation
ENDPOINT: IC50 (nM)

[P] CC1(C)[C@H]2CC[C@@H](CNc3cnn(CC(=O)NCc4ccncc4)c(=O)c3Br)[C@@H]1C2
[Q] CCC(NC(=O)Cn1ncc(N[C@@H]2C[C@@H]3C[C@H]([C@H]2C)C3(C)C)c(Cl)c1=O)C(N)=O (some centres unmarked) [Synthetic Example 402]
Input line: // which entry has the larger IC50 value, P or Q ? Return value: the label identifying the chosen record.
Output line: Q
(Q: 120 nM, P: 26 nM)

[A] O=C(Cn1ncc(NC23CC4CC(CC2C4)C3)c(Cl)c1=O)NCc1ccnc(F)c1
[B] C[C@@H]1[C@H]2C[C@@H](C[C@H]1Nc1cnn(CC(=O)NCc3ccnc(F)c3)c(=O)c1Br)C2(C)C
Input line: Given A and B , report the one with the higher recorded IC50. Return value: the label identifying the chosen record.
Output line: A

====

- TESTED_TARGET: Human P2X7 (hP2X7) receptor (Homo sapiens)
- Construct: myc-His (from the pcDNA3.1/myc-HisA vector); expressed in transfected cells
- Sequence (Q99572 1-595): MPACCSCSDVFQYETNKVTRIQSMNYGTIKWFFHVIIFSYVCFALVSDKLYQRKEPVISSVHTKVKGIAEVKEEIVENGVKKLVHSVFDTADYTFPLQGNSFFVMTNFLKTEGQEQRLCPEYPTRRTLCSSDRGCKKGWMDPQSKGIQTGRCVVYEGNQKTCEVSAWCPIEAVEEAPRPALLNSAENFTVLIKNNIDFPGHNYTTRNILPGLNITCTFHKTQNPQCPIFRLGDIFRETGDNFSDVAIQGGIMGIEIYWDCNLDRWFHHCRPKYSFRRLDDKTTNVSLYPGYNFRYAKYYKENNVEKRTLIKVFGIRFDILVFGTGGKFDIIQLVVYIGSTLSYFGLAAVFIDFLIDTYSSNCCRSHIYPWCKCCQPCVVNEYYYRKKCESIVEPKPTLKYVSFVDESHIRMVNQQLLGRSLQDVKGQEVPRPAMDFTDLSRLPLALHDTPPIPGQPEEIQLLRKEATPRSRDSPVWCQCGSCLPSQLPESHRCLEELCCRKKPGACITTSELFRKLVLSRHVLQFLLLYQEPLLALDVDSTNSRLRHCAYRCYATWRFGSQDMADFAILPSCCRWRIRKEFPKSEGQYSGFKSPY
- MEASUREMENT_NOTES: Dye assay: BzATP-induced Yo-Pro-1 uptake in HEK293 cells stably expressing hP2X7
- Type: cell-based
- MEASUREMENT_CONDITIONS: BzATP 0.1 mM, Yo-Pro-1 2 μM, 30 min pre-treatment, 90 min incubation
pIC50: −log10 of the molar value.
ENDPOINT: pIC50

Reference set, count: 4
>>> numeric_result("Cc1cc(C(C)NC(=O)Cn2ncc(N[C@@H]3C[C@@H]4C[C@H]([C@H]3C)C4(C)C)c(Cl)c2=O)c(Cl)nn1 (stereo partly drawn) [compound 443]")
8.25
>>> numeric_result("C[C@@H]1[C@H]2C[C@@H](C[C@H]1Nc1cnn(CC(=O)NCC3CCNC=C3S(C)(=O)=O)c(=O)c1Cl)C2(C)C (stereo partly drawn) [compound 447]")
7.38
>>> numeric_result("C[C@@H]1[C@H]2C[C@@H](C[C@H]1Nc1cnn(CC(=O)NCc3ccncc3S(C)(=O)=O)c(=O)c1Cl)C2(C)C [compound 442]")
8.77
>>> numeric_result("C[C@@H]1[C@H]2C[C@@H](C[C@H]1Nc1cnn(CC(=O)NCc3ccnnc3N(C)C)c(=O)c1Cl)C2(C)C [compound 435]")
8.49

[I] C[C@@H]1[C@H]2C[C@@H](C[C@H]1Nc1cnn(CC(=O)NCc3ccnnc3Cl)c(=O)c1Cl)C2(C)C [compound 433]
[II] CC(NC(=O)Cn1ncc(NC2CCC[C@@H]3CCCC[C@H]23)c(Cl)c1=O)c1ccncc1 (stereo partly drawn) [compound 453]
Input line: Among I and II , whose measured pIC50 is the smaller figure? Indicate your choice by writing its label.
Output line: II
(II: 7.80, I: 8.21)
